# Experimental target: p37AUF1 (EK-cleaved) (human, UniProt Q14103-4 1-287)
# Sequence (Q14103 other isoform, or with tags, fused parts or gaps): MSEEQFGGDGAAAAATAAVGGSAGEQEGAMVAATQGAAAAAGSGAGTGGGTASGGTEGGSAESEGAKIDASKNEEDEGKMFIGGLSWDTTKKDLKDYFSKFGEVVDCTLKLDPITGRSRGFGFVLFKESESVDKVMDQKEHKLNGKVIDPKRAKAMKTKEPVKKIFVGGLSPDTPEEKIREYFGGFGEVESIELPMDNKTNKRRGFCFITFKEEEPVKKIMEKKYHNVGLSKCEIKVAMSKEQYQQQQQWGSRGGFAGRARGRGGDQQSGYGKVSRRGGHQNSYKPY
# Assay text: fluorescence anisotropy; Anisotropy: 10 mM Tris-HCl pH 8.0, 100 mM KCl (50 mM for Fl-ARE2), 0.5 mM EDTA, 0.1 ug/ul acetylated BSA, 1 ug/ul heparin, 2 mM DTT, 25 C, RNA 0.2-0.4 nM; EMSA: same with 100 mM KCl, 10% glycerol, 1 nM RNA, on ice, UV crosslinked
# Condition parameters: protein: recombinant; tags: His6 removed by enterokinase; chain copies: 2; label: 3' fluorescein
Property: pKd
Please express pKd as -log10 of the molar concentration.

Entry under review: CCCCUGGCUCACAAAUACCUUAUUUAUUUAUUUAG (ssRNA) [ARE1-Fl] . Reported pKd?
7.82
